assayed-target: T1, human TL1A extracellular domain with N-terminal HIS and FLAG tag (human, UniProt O95150 72-251)
T1 construct: the whole entry is named; also called TNFSF15
T1 sequence: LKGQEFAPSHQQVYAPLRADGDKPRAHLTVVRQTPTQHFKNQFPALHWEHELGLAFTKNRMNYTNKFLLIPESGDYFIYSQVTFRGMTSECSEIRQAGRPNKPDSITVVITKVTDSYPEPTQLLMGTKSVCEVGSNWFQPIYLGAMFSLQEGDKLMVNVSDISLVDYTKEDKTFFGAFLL
test-description: SPR Run 8, antibody on Protein A, TL1A 5 ug/mL, timepoint 590
The following binders are listed with their measured TL1A Binding Level (Late) values.

- binder: "320-589 (antibody, human IgG1, name in Kabat numbering, V domains shown, full-length human IgG1, lambda) VH: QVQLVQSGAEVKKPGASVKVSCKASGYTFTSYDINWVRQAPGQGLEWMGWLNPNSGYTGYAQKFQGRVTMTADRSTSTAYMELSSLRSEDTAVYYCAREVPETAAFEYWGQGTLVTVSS VL: QSVLTQPPSVSGAPGQRVTISCTSSSSDIGAGSGVHWYQQLPGTAPKLLIEGYYNRPSGVPDRFSGSKSGTSASLTITGLLPEDEGDYYCQSYDGTLSALFGGGTKLTVLG"
  readout-unit: "RU"
  TL1A Binding Level (Late): 109
- binder: "320-584 (antibody, human IgG1, name in Kabat numbering, V domains shown, full-length human IgG1, lambda) VH: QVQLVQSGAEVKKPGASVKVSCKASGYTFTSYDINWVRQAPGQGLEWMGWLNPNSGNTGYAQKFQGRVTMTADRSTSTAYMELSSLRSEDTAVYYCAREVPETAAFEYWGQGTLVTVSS VL: QSVLTQPPSVSGAPGQRVTISCTSSSSDIGAGSGVHWYQQLPGTAPKLLIEGYYNRPSGVPDRFSGSKSGTSASLTITGLLPEDEGDYYCQSWDGTLSALFGGGTKLTVLG"
  readout-unit: "RU"
  TL1A Binding Level (Late): 98
- binder: "320-591 (antibody, human IgG1, V domains shown, full-length human IgG1, lambda) VH: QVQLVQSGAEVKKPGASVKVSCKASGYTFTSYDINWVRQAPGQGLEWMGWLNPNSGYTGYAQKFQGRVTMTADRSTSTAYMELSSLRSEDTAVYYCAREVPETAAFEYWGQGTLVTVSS VL: QSVLTQPPSVSGAPGQRVTISCTSSSSDIGAGLGVLWYQQLPGTAPKLLIEGYYNRPSGVPDRFSGSKSGTSASLTITGLLPEDEGDYYCQSYDGTLSALFGGGTKLTVLG"
  readout-unit: "RU"
  TL1A Binding Level (Late): 124
